# target-under-test: c-KIT kinase (Homo sapiens)
# Sequence (P10721 544-976): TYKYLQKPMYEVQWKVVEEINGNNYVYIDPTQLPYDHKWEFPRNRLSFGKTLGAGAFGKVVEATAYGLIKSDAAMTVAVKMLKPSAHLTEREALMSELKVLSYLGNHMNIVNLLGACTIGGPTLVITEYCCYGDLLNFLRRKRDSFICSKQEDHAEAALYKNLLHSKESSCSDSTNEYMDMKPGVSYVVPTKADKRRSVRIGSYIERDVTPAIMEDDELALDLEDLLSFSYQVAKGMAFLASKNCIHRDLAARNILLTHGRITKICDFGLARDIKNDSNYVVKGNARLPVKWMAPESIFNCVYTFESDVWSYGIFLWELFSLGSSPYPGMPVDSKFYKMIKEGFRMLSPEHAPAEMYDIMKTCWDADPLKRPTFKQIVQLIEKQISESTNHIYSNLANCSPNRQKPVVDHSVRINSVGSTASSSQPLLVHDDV
# assay-remarks: c-KIT kinase Assay
# Assay type: biochemical
# Parameters: cKIT residues T544-V976; GST (N); TEV cleavage site (internal); purchased deCODE Biostructures
# reported-conditions: enzymatic assay, ATP 200 µM; read-out: KIT (wt) IC50
Listed here are compounds together with their documented IC50.

>>> data_value("CCn1c(=O)c(-c2cc(NC(=O)Nc3ccc(F)c(CN4CCOCC4)c3)c(F)cc2Cl)cc2cnc(NC)cc21 [Example 95]")
"< 10 nM"
>>> data_value("CCn1c(=O)c(-c2cc(NC(=O)Nc3ccccc3)c(F)cc2Cl)cc2cnc(NC(=O)N(C)C)cc21 [Example 70]")
"< 10 nM"
>>> data_value("CCn1c(=O)c(-c2cc(NC(=O)Nc3cccc(C#N)c3)c(F)cc2F)cc2cnc(NC)cc21 [Example 18]")
"< 10 nM"

Please look up its IC50: CCn1c(=O)c(-c2cc(NC(=O)Nc3cc(F)cc(Cl)c3)c(F)cc2C)cc2cnc(NC)cc21 [Example 69]
10 to 100 nM

Please look up its IC50: CCn1c(=O)c(-c2cc(NC(=O)Nc3ccc(F)cc3)c(F)cc2Cl)cc2cnc(NCCOC)cc21 [Example 34]
< 10 nM
